For reference, IC50 measured on JNK3 (Homo sapiens):
reported-metric: IC50

1) Cn1cc(-c2c[nH]c3ncc(CC4CCC4)cc23)cn1 : < 100 nM
2) Cn1cc(-c2c[nH]c3ncc(OCC4CC4)cc23)cn1 : < 500 nM
3) Nc1cnc2[nH]cc(-c3cn[nH]c3)c2c1 : < 500 nM
4) Cn1cc(-c2c[nH]c3ncc(Oc4ccc(F)cc4)cc23)cn1 : < 1000 nM
5) Cn1cc(-c2c[nH]c3ncc(CC4CCC(N5CCOCC5)CC4)cc23)cn1 (stereo not drawn) : < 200 nM
6) Cn1cc(-c2c[nH]c3ncc(CC4CCC(=O)CC4)cc23)cn1 : < 200 nM
7) Cn1cc(-c2c[nH]c3ncc(CCC4CCCCC4)cc23)cn1 : < 200 nM
8) O=C(O)c1ccccc1C(=O)Nc1cnc2[nH]cc(-c3cncs3)c2c1 : < 200 nM
9) CCCCCc1cnc2[nH]cc(-c3csc(C(=O)N4CCCCC4)n3)c2c1 : < 200 nM
10) Cn1cc(-c2c[nH]c3ncc(OCCc4ccccc4)cc23)cn1 : < 500 nM
11) Oc1cnc2[nH]cc(-c3cn[nH]c3)c2c1 : < 2000 nM
12) Cn1cc(-c2c[nH]c3ncc(CC4CCC(O)CC4)cc23)cn1 (stereo not drawn) : < 100 nM
